Recorded Off-Flavor Intensity, one value per entry.
experiment: Sensory evaluation of aqueous solution IV containing 1,5-octadien-3-one 100 ppt: off-flavor intensity and masking component intensity; conditions: aqueous solution IV; 100 ppt added; average panel score
// return a plain number; no unit text

- compound: "CC(C)C=C(C=O)c1ccccc1"
  Off-Flavor Intensity: 3.6
- compound: "CC1CCC(C(C)C)C(OCCO)C1 (stereo not drawn)"
  Off-Flavor Intensity: 3.5
- compound: "CC(=O)/C(C)=C/C1C(C)=CCCC1(C)C (stereo not drawn)"
  Off-Flavor Intensity: 2.8
- compound: "CC(O)CC(=O)OC1CC(C)CCC1C(C)C (stereo not drawn) [menthyl 3-hydroxybutyrate]"
  Off-Flavor Intensity: 3.8

Query: // returns reported Off-Flavor Intensity for input C=CC(C)(O)CCC=C(C)CCC=C(C)C (stereo not drawn)
Reply: 3.4

Query: // returns reported Off-Flavor Intensity for input CC1CCC(C(C)C)C(OCC(O)CO)C1 (stereo not drawn)
Reply: 3.9

----------
assay: Sensory evaluation of aqueous solution I containing (E)-2-nonenal 1 ppb: off-flavor intensity and masking component intensity; conditions: 10 ppt added, (E)-2-nonenal 1 ppb, average score 0-4
Recorded Off-Flavor Intensity, one value per entry.
Field format: number, assumed points, no unit text.

- compound: "CC(=O)/C=C/C1=C(C)CCCC1(C)C [β-Ionone, β-ionone]"
  scale unit: "points"
  Off-Flavor Intensity: 2.6
- compound: "C=C(C)[C@@H]1CCC2=CC(=O)C[C@@H](C)[C@]2(C)C1 [Nootkatone, nootkatone]"
  scale unit: "points"
  Off-Flavor Intensity: 3.4
- compound: "O=C1CCCCCCCCCCCC(=O)OCCO1 [1,4-Dioxacycloheptadecan-5,17-Dione, 1,4-dioxacycloheptadecan-5,17-dione]"
  scale unit: "points"
  Off-Flavor Intensity: 2.3
- compound: "C=CC(C)(CCC=C(C)C)OC(=O)CCC (stereo not shown) [Linalyl Butyrate, linalyl butyrate]"
  scale unit: "points"
  Off-Flavor Intensity: 3.4

Query: // returns reported Off-Flavor Intensity for input CCC(=O)/C=C/C1C(C)=CCCC1(C)C (stereo not drawn) [α-Methyl Ionone, α-methyl ionone]
Reply: 2.4

Query: // returns reported Off-Flavor Intensity for input C/C=C/C(=O)C1=C(C)C=CCC1(C)C [β-Damascenone, β-damascenone]
Reply: 2.4

Query: // returns reported Off-Flavor Intensity for input CC(=O)/C=C/C1C(C)=CCCC1(C)C (stereo not drawn) [α-Ionone, α-ionone]
Reply: 3.1

----------
assay: Sensory evaluation of aqueous solution VI containing 1,5-octadien-3-ol 10 ppb: off-flavor intensity and masking component intensity; conditions: aqueous solution VI; 1 ppm added; average panel score
property name: Masking Component Intensity
// return a plain number; no unit text

- molecule: "CC(O)CC(=O)OC1CC(C)CCC1C(C)C (stereo not drawn) [menthyl 3-hydroxybutyrate]"
  Masking Component Intensity: 1.4

Continue with the molecule presented below.
Query: // returns reported Masking Component Intensity for input C=CC(C)(O)CCC=C(C)CCC=C(C)C (stereo not drawn)
Reply: 2.5

----------
assay: Sensory evaluation of aqueous solution VI containing 1,5-octadien-3-ol 10 ppb: off-flavor intensity and masking component intensity; settings: 5 ppm added; aqueous solution VI, 1,5-octadien-3-ol 10 ppb; average score 0-4
Recorded Off-Flavor Intensity, one value per entry.
Field format: number, assumed points, no unit text.

Worked examples follow.
- compound: "C=CC(C)(CCC=C(C)C)OC(=O)CCC (stereo not shown) [Linalyl Butyrate, linalyl butyrate]"
  Off-Flavor Intensity [points]: 0.1
- compound: "CCCCCCCC/C=C\\CCCCCCCC(=O)O [Oleic Acid, oleic acid]"
  Off-Flavor Intensity [points]: 1.5
- compound: "C=C(C)[C@@H]1CCC2=CC(=O)C[C@@H](C)[C@]2(C)C1 [Nootkatone, nootkatone]"
  Off-Flavor Intensity [points]: 0.6

Query: // returns reported Off-Flavor Intensity for input CCCC(=O)C(C)=O [2,3-Hexanedione, 2,3-hexanedione]
Reply: 1.0
